Reported self-cleavage values follow for various variants
B1: HDV Ribozyme (parent)
chain: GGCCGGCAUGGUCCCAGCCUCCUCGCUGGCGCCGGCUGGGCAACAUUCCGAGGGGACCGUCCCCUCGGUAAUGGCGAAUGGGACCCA

- Variants of: B1
- procedure details: self-cleavage, relative activity (ratio to wild type); higher = more cleavage; co-transcriptional

Use these answered entries as a reference point.
[[record]]
mutation_notation = "G17C U46C"
data_value = 0.0791

[[record]]
mutation_notation = "C7G U37A"
data_value = 0.147

[[record]]
mutation_notation = "U79G A83G"
data_value = 0.138

[[record]]
mutation_notation = "C33A U60A"
data_value = 0.193


[ask] What value of measured self-cleavage is listed for G11C G40A ?
[reply] 0.208

[ask] What value of measured self-cleavage is listed for G2U C57A ?
[reply] 0.156
